# pIC50 per entry
# SYSTEM_TESTED: HCV NS3/4A protease complex, BMS strain (UniProt P27958, species not given/STRAIN_BMS)
# Construct: other: NS3/4A BMS strain; activity range class; numeric values, unit not given; said of H77 and J4L6S; fused on or other part: A three-lysine solubilising tail at the C-terminus of NS4A; A His tag is implied by the pET21b vector and Ni-NTA purification; Both are printed for the H77 and J4L6S constructs and apply to BMS by inference
# Sequence (P27958 1027-1657, change not shown, one chain of several): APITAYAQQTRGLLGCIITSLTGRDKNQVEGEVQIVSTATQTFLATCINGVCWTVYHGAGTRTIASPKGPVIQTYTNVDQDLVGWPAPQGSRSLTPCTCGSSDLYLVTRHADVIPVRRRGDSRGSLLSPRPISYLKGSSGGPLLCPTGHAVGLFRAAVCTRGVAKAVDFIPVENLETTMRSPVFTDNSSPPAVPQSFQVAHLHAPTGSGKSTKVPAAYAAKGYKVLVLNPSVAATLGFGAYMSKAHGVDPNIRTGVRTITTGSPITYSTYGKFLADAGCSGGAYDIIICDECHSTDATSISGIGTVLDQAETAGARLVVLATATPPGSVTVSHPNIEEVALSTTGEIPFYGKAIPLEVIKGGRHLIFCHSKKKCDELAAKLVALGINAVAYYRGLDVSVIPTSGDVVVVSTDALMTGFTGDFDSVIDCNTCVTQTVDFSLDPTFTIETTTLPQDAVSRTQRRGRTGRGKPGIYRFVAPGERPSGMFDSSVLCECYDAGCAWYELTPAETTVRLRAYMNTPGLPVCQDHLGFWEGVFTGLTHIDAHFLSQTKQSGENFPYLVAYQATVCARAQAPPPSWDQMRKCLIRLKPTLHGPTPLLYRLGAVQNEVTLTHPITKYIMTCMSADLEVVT
# PROTOCOL_DESCRIPTION: FRET peptide assay to monitor HCV NS3/4A proteolytic activity (BMS strain)
# Format: biochemical, Hepatitis C virus (genotype 1a)
# MEASUREMENT_CONDITIONS: read-out: HCV Protease (IC50); NS3/4A BMS strain; numeric values, unit inferred
# From the text: HCV NS3 protease complexes, derived from the BMS strain, H77 strain or J4L6S strain, were generated, as described below. […] In order to monitor HCV NS3/4A protease activity, an NS3/4A peptide substrate was used. […] The peptide also contains a fluorescence donor, EDANS, near one end of the peptide and an acceptor, DABCYL, near the other end. […]
pIC50: −log10 of the molar value.
REPORTED_PROPERTY: pIC50

[[record]]
compound = "C=C[C@@H]1C[C@]1(NC(=O)[C@@H]1C[C@@H](Oc2nc(N(C)C)cc3cc(OC)ccc23)CN1C(=O)C(Nc1ccccc1)C(C)(C)C)C(=O)NS(=O)(=O)C1CC1 (single isomer, unassigned) [Compound 19B]"
value = 6.00

[[record]]
compound = "C=C[C@@H]1C[C@]1(NC(=O)[C@@H]1C[C@@H](Oc2ncc(OC)c3ccc(Cl)cc23)CN1C(=O)[C@@H](Nc1cncc(Cl)c1)C(C)(C)C)C(=O)NS(=O)(=O)C1CC1 [Compound 33]"
value = 8.70

[[record]]
compound = "C=C[C@@H]1C[C@]1(NC(=O)[C@@H]1C[C@@H](Oc2ncc(OC)c3ccc(Cl)cc23)CN1C(=O)C(Nc1cccc(OC)c1)C(C)(C)C)C(=O)NS(=O)(=O)C1CC1 (single isomer, unassigned) [Compound 201A]"
value = 8.40

[[record]]
compound = "C=C[C@@H]1C[C@]1(NC(=O)[C@@H]1C[C@@H](Oc2nccc3cc(OC)ccc23)CN1C(=O)[C@H](Nc1cccnc1)C(C)(C)C)C(=O)NS(=O)(=O)C1CC1 [Compound 13B]"
value = 5.92

[[record]]
compound = "C=C[C@@H]1C[C@]1(NC(=O)[C@@H]1C[C@@H](Oc2ncc(OC)c3ccc(Cl)cc23)CN1C(=O)C(Nc1cncc(C(F)(F)F)c1)C(C)(C)C)C(=O)NS(=O)(=O)C1CC1 (single isomer, unassigned) [Compound 27A]"
value = 8.52

[[record]]
compound = "C=C[C@@H]1C[C@]1(NC(=O)[C@@H]1C[C@@H](Oc2ncc(OC)c3ccc(Cl)cc23)CN1C(=O)C(Nc1cc(C)nc(C)c1)C(C)(C)C)C(=O)NS(=O)(=O)C1CC1 (single isomer, unassigned) [Compound 29B]"
value = 6.60

[[record]]
compound = "C=C[C@@H]1C[C@]1(NC(=O)[C@@H]1C[C@@H](Oc2ncc(OC)c3ccc(Cl)cc23)CN1C(=O)[C@H](Nc1ccc(S(N)(=O)=O)cc1)C(C)(C)C)C(=O)NS(=O)(=O)C1CC1 [Compound 215B]"
value = 6.08

[[record]]
compound = "C=CC1CC1(NC(=O)C1CC(Oc2ncc(OC)c3ccc(Cl)cc23)CN1C(=O)C(Nc1cccc(F)c1)C(C)(C)C)C(=O)NS(=O)(=O)C1CC1 (centres unmarked) [Compound 200B]"
value = 6.80

[[record]]
compound = "C=C[C@@H]1C[C@]1(NC(=O)[C@@H]1C[C@@H](Oc2ncc(OC)c3ccc(Cl)cc23)CN1C(=O)C(Nc1cncnc1)C(C)C)C(=O)NS(=O)(=O)C1CC1 (single isomer, unassigned) [Compound 24A]"
value = 7.59

[[record]]
compound = "C=C[C@@H]1C[C@]1(NC(=O)[C@@H]1C[C@@H](Oc2ncc(OC)c3ccc(Cl)cc23)CN1C(=O)C(Nc1cccc(C#N)c1)C(C)(C)C)C(=O)NS(=O)(=O)C1CC1 (some centres unmarked) [Compound 203A]"
value = 8.40

[[record]]
compound = "C=C[C@@H]1C[C@]1(NC(=O)[C@@H]1C[C@@H](Oc2nc(N(C)C)cc3c(OC)cccc23)CN1C(=O)C(Nc1cccc(C)n1)C(C)(C)C)C(=O)NS(=O)(=O)C1CC1 (single isomer, unassigned) [Compound 38B]"
value = 5.30


The reported numbers originate from patent US7772180B2.
